Hey, just so you know, these numbers are from the supplement of paper PMC10307832.

relative viability: recorded values
- Test system: NCI-H1915
- Protocol Notes: relative viability (nuclei count vs DMSO), 5 days (fraction); higher = more cells survive
- Condition Set: first compound 1.265 µM

Compound: O=C(O)c1ccc(-c2c[nH]c3ncc(-c4ccccc4)cc23)cc1C1CCCC1 + CC1(C)CCC(c2ccc(Cl)cc2)=C(CN2CCN(c3ccc(C(=O)NS(=O)(=O)c4ccc(N[C@H](CCN5CCOCC5)CSc5ccccc5)c(S(=O)(=O)C(F)(F)F)c4)cc3)CC2)C1 [Navitoclax] (partner 0.5 µM)
Attribute Measured: relative viability
Result: 0.502

Compound: O=C(O)c1ccc(-c2c[nH]c3ncc(-c4ccccc4)cc23)cc1C1CCCC1 + NC(=O)Nc1cc(-c2cccc(F)c2)sc1C(=O)N[C@H]1CCCNC1 [AZD7762] (partner 0.2 µM)
Attribute Measured: relative viability
Result: 0.764

Challenge: Need relative viability, item O=C(O)c1ccc(-c2c[nH]c3ncc(-c4ccccc4)cc23)cc1C1CCCC1 + COc1cccc2cc(-c3nc([C@H]4CC[C@H](C(=O)O)CC4)n4ncnc(N)c34)[nH]c12 [OSI-027] (partner 0.5 µM)
Response given: 0.545

Challenge: Need relative viability, item O=C(O)c1ccc(-c2c[nH]c3ncc(-c4ccccc4)cc23)cc1C1CCCC1 + CS(=O)(=O)CCNCc1ccc(-c2ccc3ncnc(Nc4ccc(OCc5cccc(F)c5)c(Cl)c4)c3c2)o1 [Lapatinib] (partner 2 µM)
Response given: 0.743

* * *

- Tested on: NCI-H596
- Protocol Notes: relative viability (nuclei count vs DMSO), 5 days (fraction); higher = more cells survive
- Condition Set: first compound 0.01581 µM
Attribute Measured: relative viability
Just the number, please, no unit after it.

Compound: CC1(C)CCC(c2ccc(Cl)cc2)=C(CN2CCN(c3ccc(C(=O)NS(=O)(=O)c4ccc(N[C@H](CCN5CCOCC5)CSc5ccccc5)c(S(=O)(=O)C(F)(F)F)c4)cc3)CC2)C1 [Navitoclax] + C[C@@H](Oc1cc(-c2cnn(C3CCNCC3)c2)cnc1N)c1c(Cl)ccc(F)c1Cl [Crizotinib] (partner 1 µM)
Result: 0.985

Challenge: Need relative viability, item CC1(C)CCC(c2ccc(Cl)cc2)=C(CN2CCN(c3ccc(C(=O)NS(=O)(=O)c4ccc(N[C@H](CCN5CCOCC5)CSc5ccccc5)c(S(=O)(=O)C(F)(F)F)c4)cc3)CC2)C1 [Navitoclax] + O=C(c1cc(Cc2n[nH]c(=O)c3ccccc23)ccc1F)N1CCN(C(=O)C2CC2)CC1 [Olaparib] (partner 8 µM)
Response given: 0.758

Challenge: Need relative viability, item CC1(C)CCC(c2ccc(Cl)cc2)=C(CN2CCN(c3ccc(C(=O)NS(=O)(=O)c4ccc(N[C@H](CCN5CCOCC5)CSc5ccccc5)c(S(=O)(=O)C(F)(F)F)c4)cc3)CC2)C1 [Navitoclax] + Nc1nc2[nH]cc(CCc3ccc(C(=O)N[C@@H](CCC(=O)O)C(=O)O)cc3)c2c(=O)[nH]1 [Pemetrexed] (partner 0.2 µM)
Response given: 0.459

* * *

- Tested on: RERF-LC-KJ
- Protocol Notes: relative viability (nuclei count vs DMSO), 5 days (fraction); higher = more cells survive
- Condition Set: first compound 2.53 µM
Label key: criterion met means relative viability under 0.4; criterion not met means relative viability of 0.4 or more.

Record excerpt, results attached:
Molecule: C=C1C(=O)O[C@@H](CCCCCCCC)[C@@H]1C(=O)O [C-75] + Cc1nc(NC(=O)N2CCC[C@H]2C(N)=O)sc1-c1ccnc(C(C)(C)C(F)(F)F)c1 [Alpelisib] (partner 2 µM)
Assigned Class: criterion not met
--
Molecule: C=C1C(=O)O[C@@H](CCCCCCCC)[C@@H]1C(=O)O [C-75] + Nc1nc2[nH]cc(CCc3ccc(C(=O)N[C@@H](CCC(=O)O)C(=O)O)cc3)c2c(=O)[nH]1 [Pemetrexed] (partner 0.2 µM)
Assigned Class: criterion not met
--
Molecule: Oc1nc(-c2ccc(C(F)(F)F)cc2)nc2c1CSCC2 [XAV939] + N=C(N)NC(=N)NCCc1ccccc1 [Phenformin] (partner 250 µM)
Assigned Class: criterion met

# input for lookup
Challenge: Given C=C1C(=O)O[C@@H](CCCCCCCC)[C@@H]1C(=O)O [C-75] + CS(=O)(=O)N1CCN(Cc2cc3nc(-c4cccc5[nH]ncc45)nc(N4CCOCC4)c3s2)CC1 [Pictilisib] (partner 1 µM) , is recorded relative viability strictly lower than 0.4?
Response given: criterion not met
